- Target Desc: UniProtKB P35368
- Sequence (P35368 whole entry): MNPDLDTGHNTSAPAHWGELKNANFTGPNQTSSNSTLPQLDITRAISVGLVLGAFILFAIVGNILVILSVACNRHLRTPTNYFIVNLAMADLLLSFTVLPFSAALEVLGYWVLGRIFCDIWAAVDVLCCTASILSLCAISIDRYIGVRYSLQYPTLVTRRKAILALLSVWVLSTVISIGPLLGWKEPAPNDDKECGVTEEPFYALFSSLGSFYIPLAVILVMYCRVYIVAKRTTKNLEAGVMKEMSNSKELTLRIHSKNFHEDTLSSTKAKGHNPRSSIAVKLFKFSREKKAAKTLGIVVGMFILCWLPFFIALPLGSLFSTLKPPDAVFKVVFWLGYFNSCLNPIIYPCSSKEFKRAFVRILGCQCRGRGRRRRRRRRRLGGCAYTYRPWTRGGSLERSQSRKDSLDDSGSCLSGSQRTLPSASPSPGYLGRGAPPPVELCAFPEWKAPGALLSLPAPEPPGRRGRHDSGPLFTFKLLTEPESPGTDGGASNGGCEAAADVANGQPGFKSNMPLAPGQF
- Method Summary: Antagonist activity at human adrenergic alpha1B receptor expressed in rat fibroblasts by plate-based calcium imaging
Entries whose Ki is below 50 nM take rule met; entries at or above 50 nM take rule not met.

Smiles Entry: CCCCN1CCC[C@@H]1Cn1nc(Cc2ccc(Cl)cc2)c2ncccc2c1=O
Class: rule met
//
Smiles Entry: COCCN1CCC[C@@H]1Cn1nc(Cc2ccc(Cl)cc2)c2cccnc2c1=O
Class: rule not met
//
Smiles Entry: CN1CCC[C@@H]1Cn1nc(Cc2ccc(Cl)cc2)c2nccnc2c1=O
Class: rule not met
//
Smiles Entry: COCCN1CCC[C@@H]1Cn1nc(Cc2ccc(Cl)cc2)c2ccccc2c1=O
Class: rule met
//
Smiles Entry: CN1CCC[C@@H]1Cn1nc(Cc2ccc(Cl)cc2)c2cccnc2c1=O
Class: rule not met
//
Smiles Entry: COCCN1CCC[C@@H]1Cn1nc(Cc2ccc(Cl)cc2)c2ncccc2c1=O
Class: rule met
//
Smiles Entry: COCCN1CCC[C@@H]1Cn1nc(Cc2ccc(Cl)cc2)c2cnccc2c1=O
Class: rule met
//
Smiles Entry: CCCCN1CCC[C@@H]1Cn1nc(Cc2ccc(Cl)cc2)c2cccnc2c1=O
Class: rule not met
//
Smiles Entry: CCCCN1CCC[C@@H]1Cn1nc(Cc2ccc(Cl)cc2)c2cnccc2c1=O
Class: rule met
//
Smiles Entry: CN1CCC[C@@H]1Cn1nc(Cc2ccc(Cl)cc2)c2ccccc2c1=O
Class: rule met
//
Smiles Entry: O=c1c2ccncc2c(Cc2ccc(Cl)cc2)nn1C[C@H]1CCCN1CCCCc1ccc(OCCCN2CCCCCC2)cc1
Class: rule met
